- Assay Target: HDAC4 (Homo sapiens)
- Sequence (P56524 whole entry, species assumed): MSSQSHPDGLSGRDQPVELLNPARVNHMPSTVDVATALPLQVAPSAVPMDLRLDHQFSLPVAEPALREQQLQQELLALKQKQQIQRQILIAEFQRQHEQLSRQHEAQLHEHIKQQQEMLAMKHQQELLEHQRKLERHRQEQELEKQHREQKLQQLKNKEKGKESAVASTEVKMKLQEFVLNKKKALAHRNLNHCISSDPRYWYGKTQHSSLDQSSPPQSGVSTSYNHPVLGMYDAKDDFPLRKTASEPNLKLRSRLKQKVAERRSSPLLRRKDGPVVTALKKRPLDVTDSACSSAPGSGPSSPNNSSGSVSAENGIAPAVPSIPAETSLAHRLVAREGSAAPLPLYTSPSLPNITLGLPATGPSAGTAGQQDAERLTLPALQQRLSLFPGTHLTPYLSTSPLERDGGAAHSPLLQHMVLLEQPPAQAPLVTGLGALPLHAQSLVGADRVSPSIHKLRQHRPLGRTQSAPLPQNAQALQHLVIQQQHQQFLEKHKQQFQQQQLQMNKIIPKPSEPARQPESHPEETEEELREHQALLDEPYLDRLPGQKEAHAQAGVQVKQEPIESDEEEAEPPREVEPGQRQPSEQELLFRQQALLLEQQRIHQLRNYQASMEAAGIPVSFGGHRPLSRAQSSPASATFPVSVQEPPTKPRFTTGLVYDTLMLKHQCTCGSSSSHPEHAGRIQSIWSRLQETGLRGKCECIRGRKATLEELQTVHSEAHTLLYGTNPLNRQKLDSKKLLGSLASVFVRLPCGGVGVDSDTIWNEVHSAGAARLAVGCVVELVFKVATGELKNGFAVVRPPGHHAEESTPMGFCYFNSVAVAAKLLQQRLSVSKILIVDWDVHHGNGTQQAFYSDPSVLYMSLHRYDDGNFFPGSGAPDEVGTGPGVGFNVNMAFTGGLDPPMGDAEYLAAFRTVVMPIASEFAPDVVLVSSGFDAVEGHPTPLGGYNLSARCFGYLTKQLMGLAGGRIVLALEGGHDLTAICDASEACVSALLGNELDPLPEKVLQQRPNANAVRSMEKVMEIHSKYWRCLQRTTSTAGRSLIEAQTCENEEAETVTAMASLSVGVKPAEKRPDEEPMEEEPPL
Measurement Label: pIC50
Give only the number. pIC50 is defined as minus log10 of concentration in molar units.

I'd like to know its pIC50. The compound in question is "O=C(/C=C/c1ccc(O)c(O)c1)OCCc1ccccc1"
4.17

###

# IC50 values compiled below
- Assay Target: HDAC11 (Homo sapiens)
- Construct: His6 (N); SUMO (N); made in house; host or cells: E. coli BL21 (DE3)
- Test Protocol: HDAC11 fluorimetric enzyme activity assay (Boc-Lys(TFA)-AMC), dose-response
- Format: biochemical
- Condition Summary: means ± standard deviation (n = 3); read-out: IC50 against HDAC11
Field format: number, assumed nM, no unit text.

Observe how each entry below is paired with its result.
> print(dat)
                                    compound  result
 1       O=C(/C=C/c1ccc(O)c(O)c1)OCCc1ccccc1    1500
 2  O=C(NO)c1ccc(CSc2nc3ccccc3c(=O)n2-c2ccccc2F)cc1    4100
 3  O=C(NO)c1ccc(CSc2nc3ccccc3c(=O)n2-c2cccc(Cl)c2)cc1    2000
 4  Cc1cccc2nc(SCc3ccc(C(=O)NO)cc3)n(-c3ccccc3)c(=O)c12    1100
 5  O=C(NO)c1ccc(CSc2nc3ccccc3c(=O)n2-c2ccccc2)cc1    2100
 6  Cc1cccc2nc(SCc3ccc(C(=O)NO)cc3)n(-c3ccc(Cl)cc3)c(=O)c12    1900
 7  CCc1ccc(-n2c(SCc3ccc(C(=O)NO)cc3)nc3cccc(C)c3c2=O)cc1    1600
 8  O=C(NO)c1ccc(CSc2nc3cc(Cl)ccc3c(=O)n2-c2ccccc2F)cc1    2000
 9  Oc1c(C(Nc2cccc(C(F)(F)F)c2)c2ccncc2)ccc2cccnc12 (stereo not shown)    2300
10  Cc1ccc(-n2c(SCc3ccc(C(=O)NO)cc3)nc3ccccc3c2=O)cc1    2000

Recall the recorded IC50 for "O=C1NC(=O)/C(=C/c2ccc(O)nc2)S1" with HDAC11 (Homo sapiens) and state it.
19000

Similarly, "Cc1ccccc1-n1c(SCc2ccc(C(=O)NO)cc2)nc2cccc(C)c2c1=O" ?
3500

Similarly, "Cc1cccc2nc(SCc3ccc(C(=O)NO)cc3)n(-c3ccccc3F)c(=O)c12" ?
1500

Similarly, "Cc1cccc(-n2c(SCc3ccc(C(=O)NO)cc3)nc3ccccc3c2=O)c1" ?
1600

Similarly, "Cc1ccc(-n2c(SCc3ccc(C(=O)NO)cc3)nc3ccccc3c2=O)c(C)c1" ?
2000

Similarly, "O=C(NO)c1ccc(CSc2nc3ccccc3c(=O)n2-c2ccc(Br)cc2)cc1" ?
2600

Similarly, "N#C/C(=C\c1ccc(O)c(O)c1)C(=O)NCCCc1ccccc1" ?
4300

###

- Test Protocol: Cytotoxicity testing (XTT) against HEK293
- Assay type: cell-based
- Condition Summary: human, HEK293 cells, HEK293, 100 µM compound concentration, read-out: Cell viability
Measurement Label: viability at 24 h, 100 µM (%)
Field format: number, assumed %, no unit text.

I'd like to know its viability at 24 h, 100 µM. The compound in question is Oc1c(C(Nc2cccc(C(F)(F)F)c2)c2ccncc2)ccc2cccnc12 (stereo not shown) [9SPC045H03]
50

###

# IC50 values compiled below
Sequence of the target: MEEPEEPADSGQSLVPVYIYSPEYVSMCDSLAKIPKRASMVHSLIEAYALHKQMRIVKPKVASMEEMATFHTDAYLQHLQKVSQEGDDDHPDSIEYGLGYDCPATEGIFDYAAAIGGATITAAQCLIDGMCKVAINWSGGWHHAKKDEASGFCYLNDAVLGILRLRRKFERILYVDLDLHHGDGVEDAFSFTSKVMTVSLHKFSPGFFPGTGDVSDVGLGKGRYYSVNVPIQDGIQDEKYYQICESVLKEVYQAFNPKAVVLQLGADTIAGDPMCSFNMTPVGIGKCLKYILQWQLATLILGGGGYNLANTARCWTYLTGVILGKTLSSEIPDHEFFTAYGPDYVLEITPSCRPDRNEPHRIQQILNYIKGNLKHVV
Field format: number, assumed µM, no unit text.

> print(dat)
                              compound  measurement.label  units.of.measure  result
1  O=C(/C=C/c1ccc(O)c(O)c1)OCCc1ccccc1               IC50                µM       7

Now consider a different compound.
I'd like to know its IC50. The compound in question is Oc1c(C(Nc2cccc(C(F)(F)F)c2)c2ccncc2)ccc2cccnc12 (centres unmarked)
13

###

# Res. HDAC activity (residual HDAC11 activity) values compiled below
- Assay Target: HDAC11 (Homo sapiens, UniProt Q96DB2)
- Construct: His6 (N); SUMO (N); made in house; host or cells: E. coli BL21 (DE3)
- Sequence (Q96DB2 whole entry): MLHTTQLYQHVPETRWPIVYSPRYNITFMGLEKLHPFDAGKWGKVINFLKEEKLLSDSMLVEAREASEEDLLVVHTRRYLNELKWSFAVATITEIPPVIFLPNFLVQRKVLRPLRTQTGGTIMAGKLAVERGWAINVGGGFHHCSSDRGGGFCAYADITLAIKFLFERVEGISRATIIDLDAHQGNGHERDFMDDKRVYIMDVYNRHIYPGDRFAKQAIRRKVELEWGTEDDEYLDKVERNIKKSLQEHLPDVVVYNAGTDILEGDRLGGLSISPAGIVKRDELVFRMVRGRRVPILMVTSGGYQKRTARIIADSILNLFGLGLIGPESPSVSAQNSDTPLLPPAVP
- Test Protocol: High-throughput screening, residual HDAC11 enzyme activity
- Type: biochemical
- Condition Summary: final compound concentration 10 µM
Field format: number, assumed %, no unit text.

Observe how each entry below is paired with its result.
> print(dat)
                               smiles.input                           assay.target  units.of.measure  result
1   N#C/C(=C\c1ccc(O)c(O)c1)C(=O)NCc1ccccc1  HDAC11 (Homo sapiens, UniProt Q96DB2)                 %      65
2  O=C(C=Cc1ccc(N=Cc2ccc([N+](=O)[O-])cc2)cc1)OCCc1ccccc1  HDAC11 (Homo sapiens, UniProt Q96DB2)                 %      97
3  Cc1cccc2nc(SCc3ccc(C(=O)NO)cc3)n(-c3ccccc3)c(=O)c12  HDAC11 (Homo sapiens, UniProt Q96DB2)                 %      58
4  N#C/C(=C\c1ccc(O)c(O)c1)C(=O)NCCCc1ccccc1  HDAC11 (Homo sapiens, UniProt Q96DB2)                 %      49

I'd like to know its Res. HDAC activity (residual HDAC11 activity). The molecule in question is "O=C(/C=C/c1ccc(O)c(O)c1)OCCc1ccccc1"
46
